Parameter: Ki. Scope: all listed entries.
molecular target: human CGRP receptor (Homo sapiens, UniProt O60894+Q16602); construct: SK-N-MC membranes (˜20 μg protein) are incubated for 180 minutes at ambient temperature; endogenous in cells; assay: Binding studies with SK-N-MC cells (expressing the human CGRP receptor); details: SK-N-MC membranes, 50 pM 125I-iodotyrosyl-CGRP, 180 minutes at ambient temperature
Sequence (Q16602 23-461): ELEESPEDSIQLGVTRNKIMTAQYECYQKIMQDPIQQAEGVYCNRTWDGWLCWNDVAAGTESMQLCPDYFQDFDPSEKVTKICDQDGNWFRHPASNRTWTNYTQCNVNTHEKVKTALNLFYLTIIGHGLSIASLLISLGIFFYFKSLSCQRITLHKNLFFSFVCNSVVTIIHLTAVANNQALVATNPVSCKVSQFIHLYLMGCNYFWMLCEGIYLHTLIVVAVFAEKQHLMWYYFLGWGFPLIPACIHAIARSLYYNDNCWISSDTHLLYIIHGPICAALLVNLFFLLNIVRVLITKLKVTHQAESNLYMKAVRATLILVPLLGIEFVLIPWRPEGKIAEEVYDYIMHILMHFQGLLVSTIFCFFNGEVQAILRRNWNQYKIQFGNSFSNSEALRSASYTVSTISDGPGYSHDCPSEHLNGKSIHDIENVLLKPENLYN
Sequence (O60894 27-148): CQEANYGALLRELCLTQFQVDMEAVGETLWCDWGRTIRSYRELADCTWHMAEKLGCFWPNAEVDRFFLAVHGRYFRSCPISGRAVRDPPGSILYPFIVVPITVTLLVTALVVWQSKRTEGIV
Readout name: Ki (nM)

molecule="O=C(c1cc(N2CCC(n3c(=O)[nH]c4ncccc43)CC2)ncn1)N1CC(CCCN2CCCC2)c2ccccc21 (centres unmarked)" reported_measurement=21
molecule=CC1(C)CN(C(=O)c2cc(N3CCC(n4c(=O)[nH]c5ncccc54)CC3)ncn2)c2ccc(F)cc21 reported_measurement=2
molecule=O=C(c1cc(N2CCC(n3c(=O)[nH]c4ncccc43)CC2)ncn1)N1Cc2ccccc2C1 reported_measurement=117
molecule=CC1(C)CN(C(=O)c2cc(N3CCC(n4c(=O)[nH]c5ncccc54)CC3)ncn2)Cc2ccccc21 reported_measurement=3
molecule="O=C(c1cc(N2CCC(n3c(=O)[nH]c4ncccc43)CC2)ncn1)N1CCC2CCCCC21 (centres unmarked)" reported_measurement=34

---

Here, each record is paired with measured Ki data.
molecular target: human CGRP receptor (Homo sapiens, UniProt O60894+Q16602); construct: SK-N-MC membranes (˜20 μg protein) are incubated for 180 minutes at ambient temperature; endogenous in cells; experiment: Binding studies with SK-N-MC cells (expressing the human CGRP receptor); settings: SK-N-MC membranes, 50 pM 125I-iodotyrosyl-CGRP, 180 minutes at ambient temperature
Readout name: Ki (nM)

smiles_data=COc1ccc2c(c1)CCN(C1CCN(c3cc(C(=O)N4Cc5cn[nH]c5C(C)(C)C4)ncn3)CC1)C(=O)N2 measurement_target="human CGRP receptor (Homo sapiens, UniProt O60894+Q16602)" reported_measurement=4
smiles_data=O=C(c1cc(N2CCC(n3c(=O)[nH]c4ncccc43)CC2)ncn1)N1CCc2cc(F)ccc21 measurement_target="human CGRP receptor (Homo sapiens, UniProt O60894+Q16602)" reported_measurement=5
smiles_data=O=C(c1cc(N2CCC(n3nc(-c4ccccc4)[nH]c3=O)CC2)ncn1)N1CCc2ccccc21 measurement_target="human CGRP receptor (Homo sapiens, UniProt O60894+Q16602)" reported_measurement=21
smiles_data=CC1(C)CCN(C(=O)c2cc(N3CCC(n4c(=O)[nH]c5ncccc54)CC3)ncn2)C1 measurement_target="human CGRP receptor (Homo sapiens, UniProt O60894+Q16602)" reported_measurement=690
